experiment: Hemolytic activity in human O+ erythrocytes after 1 hr by spectrophotometry
Type: ADME, cell-based, Erythrocyte
experimental context: human O+ erythrocytes
In this section we review reported HC50 at 1 h values for a set of molecules.

molecule=N#Cc1ccc2[nH]cc(/C=N/c3sc4c(c3C#N)CCCCC4)c2c1 recorded_value="> 400 µg/mL"
molecule=COc1ccc2[nH]cc(/C=N/c3sc4c(c3C#N)CCCC4)c2c1 recorded_value="> 400 µg/mL"
molecule=Cc1ccc2[nH]cc(/C=N/c3sc4c(c3C#N)CCC4)c2c1 recorded_value="> 400 µg/mL"

Consider the additional molecule presented here.
Which value of HC50 at 1 h has been reported for C[C@@H]1[C@H](O)[C@@H](C)/C=C/C=C/C=C/C=C/C=C/C=C/C=C/[C@H](O[C@@H]2O[C@H](C)[C@@H](O)[C@H](N)[C@@H]2O)C[C@@H]2O[C@](O)(C[C@@H](O)C[C@@H](O)[C@H](O)CC[C@@H](O)C[C@@H](O)CC(=O)O[C@H]1C)C[C@H](O)[C@H]2C(=O)O [AMPHOTERICIN B] in the records?
22.4 µg/mL

Sourced from ChEMBL document CHEMBL3822385
